Assignment: determine reported Euclidean distance for the given compounds.
System: OVCAR4
Test: Euclidean distance of Cell Painting phenotypic profile (signed KS, 77 features) to DMSO centroid (dimensionless distance); 5 or 10 uM (library dependent); higher = stronger phenotypic change vs DMSO (phenoactivity)
Settings: 48 h
Where a name gives a salt, the structure may show the parent alone.
Answer field: number only, no words.

Request: Query: Euclidean distance; subject: CC(=O)Nc1nc(C)c(-c2ccc(Cl)c(S(=O)(=O)NCCO)c2)s1
Response: 1.12

Request: Consider next the compound CCCS(=O)(=O)N[C@H]1C[C@@H](N(C)c2ncnc3[nH]ccc23)C1 in the same way.
Response: 1.17

Request: Consider next the compound CNS(=O)(=O)C[C@H]1CC[C@H](N(C)c2[nH]cnc3nccc2-3)CC1 in the same way.
Response: 0.949

Request: Consider next the compound CS(=O)(=O)OCCCCOS(C)(=O)=O [Busulfan] in the same way.
Response: 1.95

Request: Consider next the compound C[C@H](NC(=O)Cc1cc(F)cc(F)c1)C(=O)N[C@H](C(=O)OC(C)(C)C)c1ccccc1 in the same way.
Response: 1.26

Request: Consider next the compound O=c1c(O)c(-c2cc(O)c(O)c(O)c2)oc2cc(O)cc(O)c12 [Myricetin] in the same way.
Response: 2.1

Request: Consider next the compound NCCCCC(NC(=O)C1CCCN1C(=O)C1CSSCC(N)C(=O)NC(Cc2ccc(O)cc2)C(=O)NC(Cc2ccccc2)C(=O)NC(CCC(N)=O)C(=O)NC(CC(N)=O)C(=O)N1)C(=O)NCC(N)=O (stereo unspecified) [Lypressin Acetate] in the same way.
Response: 1.48

Request: Consider next the compound N=C1CCCN1Cc1[nH]c(=O)[nH]c(=O)c1Cl [Tipiracil hydrochloride] in the same way.
Response: 0.676

Request: Consider next the compound COCC[n+]1c2c(n(Cc3cnccn3)c1C)C(=O)c1ccccc1C2=O [YM155 (Sepantronium Bromide)] in the same way.
Response: 5.47

Request: Consider next the compound COc1nccnc1NS(=O)(=O)c1ccc(N)cc1 [Sulfalene(SMPZ)] in the same way.
Response: 0.917

Request: Consider next the compound COc1ccccc1O [Guaiacol] in the same way.
Response: 1.43

Request: Consider next the compound c1ccc(C2CN3CCSC3=N2)cc1 (stereo unspecified) [Tetramisole HCl] in the same way.
Response: 1.25

Request: Consider next the compound CCC1=C[C@@H]2CN(C1)Cc1c([nH]c3ccccc13)[C@@](C(=O)OC)(c1cc3c(cc1OC)N(C)[C@H]1[C@@](O)(C(=O)OC)[C@H](OC(C)=O)[C@]4(CC)C=CCN5CC[C@]31[C@@H]54)C2 [Vinorelbine Tartrate] in the same way.
Response: 3.03

Request: Consider next the compound Cc1cc(=O)n(-c2ccccc2)n1C [Antipyrine] in the same way.
Response: 0.707

Request: Consider next the compound CC(C)C(=O)OCC(=O)[C@@]12O[C@H](C3CCCCC3)O[C@@H]1C[C@H]1[C@@H]3CCC4=CC(=O)C=C[C@]4(C)[C@H]3[C@@H](O)C[C@@]12C [Ciclesonide] in the same way.
Response: 2.09

Request: Consider next the compound N[C@@H](Cc1cc(I)c(Oc2ccc(O)c(I)c2)c(I)c1)C(=O)O [Triiodothyronine] in the same way.
Response: 1.58

Request: Consider next the compound CC(=O)N[C@@H](CS)C(=O)O [Acetylcysteine] in the same way.
Response: 1.6

Request: Consider next the compound CN(C)[C@@H]1C(O)=C(C(N)=O)C(=O)[C@@]2(O)C(O)=C3C(=O)c4c(O)cccc4[C@@](C)(O)[C@H]3[C@H](O)[C@@H]12 [Oxytetracycline Dihydrate] in the same way.
Response: 1.3

Request: Consider next the compound C=C1/C(=C\C=C2/CCC[C@]3(C)[C@@H]([C@H](C)/C=C/[C@H](C)C(C)C)CC[C@@H]23)C[C@@H](O)C[C@@H]1O [Doxercalciferol] in the same way.
Response: 1.73

Request: Consider next the compound Oc1ccc2c(c1)CC[C@H](c1ccccc1)[C@@H]2c1ccc(OCCN2CCCC2)cc1 [Lasofoxifene Tartrate] in the same way.
Response: 2.5

Request: Consider next the compound Clc1ccc(C(Cn2ccnc2)OCc2ccsc2Cl)c(Cl)c1 (stereo unspecified) [Tioconazole] in the same way.
Response: 1.44

====

Tested on: HEPG2
Test: Euclidean distance of Cell Painting phenotypic profile (signed KS, 77 features) to DMSO centroid (dimensionless distance); 5 or 10 uM (library dependent); higher = stronger phenotypic change vs DMSO (phenoactivity)
Details: 48 h
Where a name gives a salt, the structure may show the parent alone.
MEASUREMENT LABEL: Euclidean distance
Answer field: number only, no words.

Request: Query: Euclidean distance; subject: O=C(Nc1ccccc1)c1cc([N+](=O)[O-])ccc1Cl
Response: 0.832

Request: Consider next the compound CC(C)(C)c1nc(-c2cccc(NS(=O)(=O)c3c(F)cccc3F)c2F)c(-c2ccnc(N)n2)s1 in the same way.
Response: 1.45

Request: Consider next the compound COc1ccc(-n2nc(C(N)=O)c3c2C(=O)N(c2ccc(N4CCCCC4=O)cc2)CC3)cc1 [Apixaban] in the same way.
Response: 1.17

Request: Consider next the compound COc1cc(Nc2ncc(F)c(Nc3ccc4c(n3)NC(=O)C(C)(C)O4)n2)cc(OC)c1OC [R406 (free base)] in the same way.
Response: 1.99

Request: Consider next the compound Fc1ccc([C@@H]2CCNC[C@H]2COc2ccc3c(c2)OCO3)cc1 [Paroxetine mesylate] in the same way.
Response: 2.59

Request: Consider next the compound C=CCOc1ccccc1OCC(O)CNC(C)C (centres undefined) [Oxprenolol HCl] in the same way.
Response: 0.783

Request: Consider next the compound CC1(C)CCC2=C(O1)c1ccccc1C(=O)C2=O [Beta-Lapachone] in the same way.
Response: 4.33

Request: Consider next the compound NCCCC[C@H](NC(=O)[C@@H](NC(=O)[C@H](Cc1c[nH]c2ccccc12)NC(=O)[C@H](CCCCN)NC(=O)[C@H](CCCCN)NC(=O)[C@H](Cc1c[nH]c2ccccc12)NC(=O)[C@H](Cc1c[nH]c2ccccc12)NC(=O)[C@H](CCCCN)NC(=O)[C@@H](N)CCCCN)C(c1ccccc1)c1ccccc1)C(N)=O in the same way.
Response: 1.2

Request: Consider next the compound NC[C@H](O)c1ccc(O)c(O)c1 [Noradrenaline bitartrate monohydrate] in the same way.
Response: 0.697

====

Test system: DU145
Experiment: Euclidean distance of Cell Painting phenotypic profile (signed KS, 77 features) to DMSO centroid (dimensionless distance); 5 or 10 uM (library dependent); higher = stronger phenotypic change vs DMSO (phenoactivity)
Conditions: 48 h
Where a name gives a salt, the structure may show the parent alone.
MEASUREMENT LABEL: Euclidean distance
Answer field: number only, no words.

Request: Query: Euclidean distance; subject: CC(O)c1cc(C(=O)N[C@@H](C)Cn2ccc(-c3ccc(C#N)c(Cl)c3)n2)n[nH]1 (some centres undefined) [Darolutamide (ODM-201)]
Response: 1.04

Request: Consider next the compound COC(=O)[C@@H]1[C@H]2C[C@H]3c4[nH]c5ccccc5c4CCN3C[C@@H]2CC[C@@H]1O [Yohimbine HCl] in the same way.
Response: 0.901

Request: Consider next the compound O=C(Nc1ccccc1Br)N[C@@H]1CCN(c2ccc(C(F)(F)F)cn2)C1 in the same way.
Response: 0.688

Request: Consider next the compound COc1ccc(-c2cc(=O)c3c(OC)c(OC)c(OC)c(OC)c3o2)cc1 [Tangeretin] in the same way.
Response: 1.17

Request: Consider next the compound O=C1c2cccc3c2[C@H](CCC3)CN1[C@@H]1CN2CCC1CC2 [Palonosetron HCl] in the same way.
Response: 0.971

Request: Consider next the compound NS(=O)(=O)c1cc(C2(O)NC(=O)c3ccccc32)ccc1Cl (centres undefined) [Chlorthalidone] in the same way.
Response: 1.18

Request: Consider next the compound CC[C@H](Nc1ncnc2[nH]cnc12)c1nc2cccc(F)c2c(=O)n1-c1ccccc1 [CAL-101 (Idelalisib. GS-1101)] in the same way.
Response: 1.32

Request: Consider next the compound CCCCCCOC(=O)NC(=N)c1ccc(NCc2nc3cc(C(=O)N(CCC(=O)OCC)c4ccccn4)ccc3n2C)cc1 [Dabigatran Etexilate] in the same way.
Response: 1.17

Request: Consider next the compound Cc1csc(-c2nnc(Nc3ccc(Oc4ncccc4-c4ccnc(N)n4)cc3)c3ccccc23)c1 in the same way.
Response: 2.83

Request: Consider next the compound COc1c(C)c2c(c(O)c1C/C=C(\C)CCC(=O)OCCN1CCOCC1)C(=O)OC2 [Mycophenolate Mofetil] in the same way.
Response: 2.11

Request: Consider next the compound COC(=O)[C@@H]1CC2=CC(=O)CC[C@]2(C)[C@@]23O[C@@H]2C[C@@]2(C)[C@@H](CC[C@@]24CCC(=O)O4)[C@H]13 [Eplerenone] in the same way.
Response: 0.81

Request: Consider next the compound C[C@H]1O[C@H](O[C@H]2[C@H](O)[C@@H](O)[C@@H](O[C@H]3[C@H](O)[C@@H](O)C(O)O[C@@H]3CO)O[C@@H]2CO)[C@H](O)[C@@H](O)[C@@H]1N[C@H]1C=C(CO)[C@@H](O)[C@H](O)[C@H]1O (some centres undefined) [Acarbose] in the same way.
Response: 1.47

Request: Consider next the compound O=c1ccc2ccc(O)c(O)c2o1 [Daphnetin] in the same way.
Response: 0.975

Request: Consider next the compound CN1C(=O)C(Cc2c[nH]c3ccccc23)NC1=S (centres undefined) [Necrostatin-1] in the same way.
Response: 1.1
